Reference source: ChEMBL document CHEMBL1139412

# assaySystem: Epidermal growth factor receptor (Homo sapiens) (UniProt P00533)
# Sequence (P00533 whole entry): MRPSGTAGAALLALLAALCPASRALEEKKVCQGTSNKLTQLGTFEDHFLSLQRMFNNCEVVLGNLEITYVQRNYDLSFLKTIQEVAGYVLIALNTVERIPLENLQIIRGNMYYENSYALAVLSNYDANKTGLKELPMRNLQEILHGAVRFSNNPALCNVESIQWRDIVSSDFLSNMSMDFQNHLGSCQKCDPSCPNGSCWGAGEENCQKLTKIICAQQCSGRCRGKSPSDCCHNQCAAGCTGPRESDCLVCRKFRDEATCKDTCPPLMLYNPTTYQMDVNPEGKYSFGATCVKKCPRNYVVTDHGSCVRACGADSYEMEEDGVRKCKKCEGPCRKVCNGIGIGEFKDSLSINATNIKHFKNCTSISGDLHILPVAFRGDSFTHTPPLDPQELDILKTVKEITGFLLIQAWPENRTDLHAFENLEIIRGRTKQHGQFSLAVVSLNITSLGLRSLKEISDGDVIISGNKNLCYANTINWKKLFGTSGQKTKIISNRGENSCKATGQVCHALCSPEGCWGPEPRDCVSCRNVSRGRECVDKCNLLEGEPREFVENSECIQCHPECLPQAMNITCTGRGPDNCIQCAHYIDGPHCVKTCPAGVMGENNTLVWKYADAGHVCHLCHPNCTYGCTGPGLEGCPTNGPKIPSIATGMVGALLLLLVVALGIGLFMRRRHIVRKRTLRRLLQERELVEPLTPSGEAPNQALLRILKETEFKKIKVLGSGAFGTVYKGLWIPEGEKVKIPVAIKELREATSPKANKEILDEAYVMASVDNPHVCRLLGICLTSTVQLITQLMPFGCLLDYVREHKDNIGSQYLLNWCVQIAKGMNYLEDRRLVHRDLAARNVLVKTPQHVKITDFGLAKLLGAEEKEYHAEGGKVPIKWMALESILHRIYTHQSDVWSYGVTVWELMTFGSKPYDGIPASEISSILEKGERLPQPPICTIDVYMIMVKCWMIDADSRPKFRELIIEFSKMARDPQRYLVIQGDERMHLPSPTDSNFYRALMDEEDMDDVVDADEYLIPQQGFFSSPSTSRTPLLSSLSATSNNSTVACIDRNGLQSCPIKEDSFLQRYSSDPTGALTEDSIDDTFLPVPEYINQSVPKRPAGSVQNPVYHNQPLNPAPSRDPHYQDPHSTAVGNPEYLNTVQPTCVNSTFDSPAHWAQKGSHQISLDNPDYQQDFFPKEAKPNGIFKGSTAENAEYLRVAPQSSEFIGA
# protocol: Binding affinity to EGFR in EGF-stimulated human HT29 cells assessed as granular complex formation at 1 uM after 30 mins by confocal laser scanning microscopy
# Format: cell-based
# conditionSummary: HT-29
Activity calls are given as the source filed them. The calls are words filed in the database; no cut-off is given here.
Result category, one only: True for active, False for inactive

Below are worked cases with known answers.
NCCCNCCCNC1=CC(=O)c2cc3cc4ccccc4cc3cc2C1=O :: False
NCCCCCCCCNC1=CC(=O)c2ccccc2C1=O :: True
NCCCCCCCCNC1=CC(=O)c2cc3ccccc3cc2C1=O :: False
NCCCNCCCNC1=CC(=O)c2cc3ccccc3cc2C1=O :: False
NCCCNCCCNC1=CC(=O)c2ccccc2C1=O :: False

Please turn your attention to the following entry.
Query: Dear colleague, could you share the recorded outcome for NCCCCCCCCNC1=CC(=O)c2cc3cc4ccccc4cc3cc2C1=O when you have a moment?
Result: False
